Where these numbers come from: PubChem BioAssay (NCI)

This section presents compounds with their documented TGI values.
# Tested on: HCC-2998 colon
# RUN_DESCRIPTION: NCI tumour cell line growth inhibition, 48 h
Use µM as the unit, but write only the number.

Ask: Give its TGI value. Item: CCCCCCCCCCCCCCCCN1CC2CCCCC2C1 (stereo unspecified)
Result: 5.44

---

# System: HT29 colon
# RUN_DESCRIPTION: NCI tumour cell line growth inhibition, 48 h
QUANTITY_KIND: TGI

Ask: What reported TGI corresponds to `O=C1c2c(ccc3c2CCCC3)CC12Cc1ccc3c(c1C2=O)CCCC3` on HT29 colon?
Result: > 100 µM

Ask: Please give the result for `CCS(=O)(=O)Nc1ccc(Nc2c3ccccc3nc3ccccc23)c(OC)c1` too.
Result: 6.56 µM

Ask: Please give the result for `COc1cc(OC(C)=O)cc2c(OC(C)=O)ccc(OC(C)=O)c12` too.
Result: > 100 µM

Ask: Please give the result for COC12OC3(C4OC41)C(C(=O)O[C@H]3CO[Si](C)(C)C(C)(C)C)C2C(=O)Oc1ccccc1 (stereo not given in full) too.
Result: > 100 µM

Ask: Please give the result for CC1OC(O[C@@H]2OC=C(C=O)[C@@]3(O)CC[C@H](C)[C@@H]23)C(O)C(O)C1O (stereo not given in full) too.
Result: > 100 µM
